Data origin, for the record: PubChem BioAssay (NCATS)

METHOD_NOTES: Primary qHTS for Vero E6 cytotoxicity: counterscreen for inhibitors of SARS-S pseudo-typed particle cell entry (AID 1479150); as to activity change, negative = cytotoxicity: % is scaled to controls: 0 for no effect and ±100 for the full control effect
EXPERIMENTAL_CONTEXT: cell viability; series mostly up to 57.1 µM
Inconclusive results are not listed. Active and inactive are the calls of the source. Calls follow the shape of the full dose curve.

{"columns": ["COMPOUND", "activity change, negative = cytotoxicity"],
 "data": [
  ["CCCC(=O)O[C@]1(C(=O)CO)CC[C@H]2[C@@H]3CCC4=CC(=O)CC[C@]4(C)[C@H]3[C@@H](O)C[C@@]21C", "inactive"],
  ["N[C@@H](CCC(=O)N[C@@H](CS)C(=O)NCC(=O)O)C(=O)O", "inactive"],
  ["CC(=O)O[C@@H]1CC2C3CCc4cc(OC(=O)c5ccccc5)ccc4C3CCC2(C)[C@H]1OC(C)=O (stereo partly drawn)", "inactive"]
]}

###

METHOD_NOTES: S16 Schwann cell PMP22 intronic element firefly luciferase assay (AID 624032); also: nearly all actives have a fitted effect of over 30% in size
EXPERIMENTAL_CONTEXT: S16 rat Schwann cells, PMP22 element FLuc, 24 h; series mostly up to 57.5 µM
Results filed as inconclusive are left out. Calls of active or inactive are those of the source. Calls follow the shape of the dose curve; as a rule, active = well fitted inhibition curve with a large enough effect; inconclusive = small, poorly fitted or top-dose-only effect; inactive = no such curve, though single readings can be large or run the other way.
Reply using exactly one outcome from class 1 = active, class 0 = inactive

Challenge: Fill in: this test's call for CCOP(=S)(OCC)Oc1ccc2c(C)c(Cl)c(=O)oc2c1 is ___
Response given: class 1

Challenge: Fill in: this test's call for O=C1CN=C(c2ccccc2)c2cc([N+](=O)[O-])ccc2N1 is ___
Response given: class 0

Challenge: Fill in: this test's call for Clc1ccc2c(c1)C(c1ccccc1)=NCc1nncn1-2 is ___
Response given: class 0

Challenge: Fill in: this test's call for O=C1c2ccccc2C(=O)C1C(=O)C(c1ccccc1)c1ccccc1 is ___
Response given: class 0

Challenge: Fill in: this test's call for COc1ccc2c(c1OC)C(=O)O[C@H]2[C@@H]1c2cc3c(cc2CCN1C)OCO3 is ___
Response given: class 0

Challenge: Fill in: this test's call for Cn1c(=O)c2[nH]cnc2n(C)c1=O is ___
Response given: class 0

Challenge: Fill in: this test's call for O=c1[nH]oc2c1CCNC2 is ___
Response given: class 0

Challenge: Fill in: this test's call for NNc1ccccc1 is ___
Response given: class 0

Challenge: Fill in: this test's call for CN1C(=O)CCS(=O)(=O)C1c1ccc(Cl)cc1 (stereo not given) is ___
Response given: class 0

Challenge: Fill in: this test's call for O=C1c2ccccc2C(=O)c2ccccc21 is ___
Response given: class 0

###

MEASUREMENT_TARGET: Cytochrome P450 2C9 (Homo sapiens) (UniProt P11712)
Sequence (P11712 whole entry, looked up): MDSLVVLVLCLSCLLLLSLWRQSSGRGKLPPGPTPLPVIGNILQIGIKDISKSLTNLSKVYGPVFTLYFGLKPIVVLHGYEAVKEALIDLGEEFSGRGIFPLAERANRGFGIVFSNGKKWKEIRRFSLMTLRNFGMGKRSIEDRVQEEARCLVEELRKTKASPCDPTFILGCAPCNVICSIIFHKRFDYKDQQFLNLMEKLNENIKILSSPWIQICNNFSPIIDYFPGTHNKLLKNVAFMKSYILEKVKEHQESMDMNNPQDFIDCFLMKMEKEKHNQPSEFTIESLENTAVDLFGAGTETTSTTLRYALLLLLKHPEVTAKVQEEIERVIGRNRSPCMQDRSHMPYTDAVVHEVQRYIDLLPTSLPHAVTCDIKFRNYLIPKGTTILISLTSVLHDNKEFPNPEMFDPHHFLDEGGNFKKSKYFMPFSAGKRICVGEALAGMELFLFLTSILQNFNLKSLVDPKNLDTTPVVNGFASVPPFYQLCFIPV
METHOD_NOTES: Cytochrome P450 family 2 subfamily C member 9 (CYP2C9) small molecule antagonists: luciferase biochemical (cell-free) qHTS assay (AID 1645842); also: nearly all actives have a fitted effect of over 55% in size
EXPERIMENTAL_CONTEXT: P450-Glo CYP2C9 enzyme assay, luciferin luminescence; series mostly up to 57.4 µM
Inconclusive results are not listed. Activity calls are given as the source filed them. Calls come from the whole dose curve; as a rule, active = well fitted inhibition curve with a large enough effect in the repeat runs; inconclusive = weak or mixed curves; inactive = no such curve, though single readings can be large or run the other way.
Reply using exactly one outcome from T = active, F = inactive

The examples below pair each entry with its known result.
{"columns": ["COMPOUND", "MEASUREMENT_TARGET", "ASSIGNED_CATEGORY"],
 "data": [
  ["CNC(C)(C)Cc1ccccc1", "Cytochrome P450 2C9 (Homo sapiens) (UniProt P11712)", "F"],
  ["C=C(C)[C@H]1CN[C@H](C(=O)O)[C@H]1CC(=O)O", "Cytochrome P450 2C9 (Homo sapiens) (UniProt P11712)", "F"],
  ["Clc1ccc(C(c2ccc(Cl)cc2)C(Cl)(Cl)Cl)cc1", "Cytochrome P450 2C9 (Homo sapiens) (UniProt P11712)", "T"]
]}

Challenge: Fill in: this test's call for CNCC(=O)c1ccc(O)c(O)c1 is ___
Response given: F

Challenge: Fill in: this test's call for C[C@@H]1CC2=CC(=O)CC[C@@H]2[C@H]2CC[C@@]3(C)[C@@H](CC[C@]3(C)O)[C@@H]21 is ___
Response given: F

###

System: HaCat
METHOD_NOTES: Cytotoxic Profiling of Annotated Libraries Using Quantitative High-Throughput Screening (AID 1296008); also: % is scaled to controls: 0 for no effect and ±100 for the full control effect; nearly all actives have a fitted effect of over 60% in size
EXPERIMENTAL_CONTEXT: Five cell lines viability, CellTiter-Glo ATP luminescence, 48-72 h; active compounds read low
Records with an inconclusive call do not appear. Activity calls are given as the source filed them. Calls follow the shape of the dose curve; as a rule, active = well fitted inhibition curve with a large enough effect; inconclusive = small, poorly fitted or top-dose-only effect; inactive = flat fitted curve, though single readings scatter.
ASSAY_ENDPOINT: max response

{"columns": ["COMPOUND", "REPORTED_MEASUREMENT"],
 "data": [
  ["CCC(C)C(C)(COC(N)=O)COC(N)=O (stereo unspecified)", "-3.56% (inactive)"],
  ["CCC(C)(C)c1ccc(O)cc1", "2.15% (inactive)"]
]}

Give me max response for each of these compounds, listed below.
1. COP(=S)(OC)Oc1ccc(SC)c(C)c1
2. CCN(CC)C(=O)[C@@H]1C=C2c3cccc4[nH]cc(c34)C[C@H]2N(C)C1
3. COc1c2c(cc3c1OCO3)CCN(C)C2
4. O=P1(N(CCCl)CCCl)NCCCO1 (stereo unspecified)
5. C[C@]12CCC(=O)C=C1CC[C@@H]1[C@@H]2CC[C@]2(C)C(=O)CC[C@@H]12

Response given:
1: -0.754% (inactive); 2: 1.44% (inactive); 3: -2.59% (inactive); 4: -5.79% (inactive); 5: -13.1% (inactive)

###

METHOD_NOTES: qHTS assay for small molecule activators of the p53 signaling pathway (AID 651743); also: % of control where 0% means no effect
EXPERIMENTAL_CONTEXT: HCT-116 p53RE-bla, beta-lactamase FRET ratio, 16 h; active compounds read high
Records with an inconclusive call do not appear.
ASSAY_ENDPOINT: activation (%)
Answers are plain numbers, in %.

Record excerpt, results attached:
{"columns": ["MOLECULE", "RESULT_UNITS", "REPORTED_MEASUREMENT"],
 "data": [
  ["Nc1ccccc1C(=O)O", "%", -0.0398],
  ["C[C@]1(O)CC[C@H]2[C@@H]3CCC4=CC(=O)CC[C@]4(C)[C@@]3(F)[C@@H](O)C[C@@]21C", "%", -1.51],
  ["COc1cc(OC)c(OC)cc1C=O", "%", -3.74],
  ["Clc1ccc(C(c2ccc(Cl)cc2)C(Cl)(Cl)Cl)cc1", "%", 2.65],
  ["[N-]=[N+]=CC(=O)OC[C@H](N)C(=O)O", "%", -0.27],
  ["COP(=S)(OC)Oc1cc(Cl)c(Cl)cc1Cl", "%", -3.16],
  ["CC(C)(C)c1ccc(O)cc1", "%", -2.47],
  ["NCCc1ccc(O)cc1", "%", -2.23]
]}

Challenge: // activation lookup, key: Oc1ccc(Cl)cc1
Response given: -2.59

###

METHOD_NOTES: qHTS of pediatric cancer cell lines to identify multiple opportunities for drug repurposing: Primary screen for Rh41 cells (AID 1347108); also: nearly all actives have a fitted effect of over 70% in size
EXPERIMENTAL_CONTEXT: Rh41 rhabdomyosarcoma viability, CellTiter-Glo luminescence, 48 h; series mostly up to 46 µM
Records with an inconclusive call do not appear. Calls of active or inactive are those of the source. Calls come from the whole dose curve; as a rule, active = well fitted cell-killing curve with a large enough effect; inconclusive = small, poorly fitted or top-dose-only effect; inactive = no such curve, though single readings can be large or run the other way.
Reply using exactly one outcome from active, inactive

The examples below pair each entry with its known result.
{"columns": ["MOLECULE", "ASSIGNED_CATEGORY"],
 "data": [
  ["C[C@]12CC[C@H]3[C@@H](CC[C@@]45O[C@H]4C(O)=C(C#N)C[C@]35C)[C@H]1CC[C@H]2O", "active"],
  ["NC1=NC(=O)C(c2ccccc2)O1 (stereo not drawn)", "inactive"]
]}

Challenge: Fill in: this test's call for C[N+]1(CCF)[C@@H]2CC[C@H]1CC(OC(=O)C(O)(c1ccccc1)c1ccccc1)C2 (stereo partly drawn) is ___
Response given: inactive

###

System: Zika virus NS2B-NS3 protease
METHOD_NOTES: Primary screen GU AMC qHTS for Zika virus inhibitors (AID 1347154); also: nearly all actives have a fitted effect of over 70% in size
EXPERIMENTAL_CONTEXT: Zika NS2B-NS3 unlinked protease, AMC fluorogenic substrate; series mostly up to 54.1 µM
Inconclusive results are not listed. Activity calls are given as the source filed them. Calls come from the whole dose curve; as a rule, active = well fitted inhibition curve with a large enough effect; inconclusive = small, poorly fitted or top-dose-only effect; inactive = flat fitted curve, though single readings scatter.
Reply using exactly one outcome from class 1 (active), class 0 (inactive)

The examples below pair each entry with its known result.
{"columns": ["COMPOUND", "MEASUREMENT_TARGET", "ASSIGNED_CATEGORY"],
 "data": [
  ["CCCCCCCCCC(=O)O[C@H]1CC[C@H]2[C@@H]3CCC4=CC(=O)CC[C@@H]4[C@H]3CC[C@]12C", "Zika virus NS2B-NS3 protease", "class 0"],
  ["COc1c2c(cc3c1OCO3)CCN(C)C2", "Zika virus NS2B-NS3 protease", "class 0"],
  ["COc1ccc2c3c1O[C@H]1[C@H](O)CC[C@H]4[C@@H](C2)N(C)CC[C@@]341", "Zika virus NS2B-NS3 protease", "class 0"]
]}

Challenge: Fill in: this test's call for Oc1ccc(Cl)cc1 is ___
Response given: class 0

Challenge: Fill in: this test's call for CCN[C@@H](C)Cc1ccccc1 is ___
Response given: class 0

Challenge: Fill in: this test's call for CN1C(=O)COc2c(C(=O)NC3CN4CCC3CC4)cc(Cl)cc21 (stereo not given) is ___
Response given: class 0

Challenge: Fill in: this test's call for Nc1nc(N)nc(NC2CC2)n1 is ___
Response given: class 0

Challenge: Fill in: this test's call for COC(=O)[C@@H](N)CCCN/C(N)=N/[N+](=O)[O-] is ___
Response given: class 0

Challenge: Fill in: this test's call for CCC1(c2ccccc2)C(=O)N(COC)C(=O)N(COC)C1=O is ___
Response given: class 0

Challenge: Fill in: this test's call for Clc1cccc(SC2CCNCC2)n1 is ___
Response given: class 0

Challenge: Fill in: this test's call for CC[N+]1(CC)CCC(OC(=O)C(O)(c2ccccc2)c2ccccc2)C1 (stereo not given) is ___
Response given: class 0

Challenge: Fill in: this test's call for COc1cccc2c1C(=O)c1c(O)c3c(c(O)c1C2=O)C[C@@](O)(C(=O)CO)CC3OC1CC(N2CCOC(OC)C2)C(O)C(C)O1 (stereo not given in full) is ___
Response given: class 0

Challenge: Fill in: this test's call for CCCCC/C=C\C/C=C\C/C=C\C/C=C\CCCC(=O)NCC(=O)O is ___
Response given: class 1

Challenge: Fill in: this test's call for CC(C)NC(C)C is ___
Response given: class 0
